system: Fibroblast; assay: Multiplex assay against human fibroblast; type: toxicity, cell-based; conditions: 48 h, 10 µM, compound concentration 10 uM, replicate 2
Reported Population Fragmented Nuclei (%) values follow for various compounds
Write the number in % without appending the unit.

Some compounds with known Population Fragmented Nuclei (%) results, for comparison:
Cc1c(-c2ccc(O)cc2)n(Cc2ccc(OCCN3CCCCCC3)cc2)c2ccc(O)cc12 : 42
CN1CCN(c2ccc(OC(F)(F)F)c(Nc3ncc4c(n3)-c3c(c(C(N)=O)nn3CCO)CC4)c2)CC1 : 37
CC[C@H](C)C(=O)O[C@H]1C[C@@H](C)C=C2C=C[C@H](C)[C@H](CC[C@@H]3C[C@@H](O)CC(=O)O3)[C@H]21 : 37
CNCc1ccccc1-c1csc([C@H](C)Nc2nc(C)nc3cc(OC)c(OC)cc23)c1 : 84
COc1cc2nccc(Oc3ccc(NC(=O)Nc4cc(C)on4)c(Cl)c3)c2cc1OC.O : 36
Cc1[nH]c(/C=C2\C(=O)Nc3ccc(S(=O)(=O)N(C)c4cccc(Cl)c4)cc32)c(C)c1C(=O)N1CCN(C)CC1 : 21

# ---- query compound ----
Exercise: State, in one line, measured Population Fragmented Nuclei (%) of C[C@@]1(C(=O)Nc2ccc(F)nc2)CCCN1c1nc(Nc2cc(C3CC3)n[nH]2)c2cccn2n1
Solution: 27
